Target: HRgpA-6H (Porphyromonas gingivalis) (UniProt P28784)
Experiment: ELISA on coated HRgpA-6H, OD relative to parental Fab
Assign t to entries whose Ratio OD(Variant)/OD(WT) meets or exceeds 0.9 fold; assign f to the rest.

Inquiry: Could you please find out whether KB001 mouse Fab variant VL S57A (Fab, V domains shown) VH: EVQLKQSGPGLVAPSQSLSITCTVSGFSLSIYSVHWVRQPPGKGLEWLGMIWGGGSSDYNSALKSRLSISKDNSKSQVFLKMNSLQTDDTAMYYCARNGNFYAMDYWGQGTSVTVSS VL: QIVLTQSPAIMSASLGERVTMTCTASSSVSSSFLHWYQQKPGSSPQLWIYSTSNLAAGVPARFSGSGSGTSYSLTISSMEAEDAATYYCHQYHHSPYIYTFGGGTKLEIK has Ratio OD(Variant)/OD(WT) that meets 0.9 fold or exceeds it?
Reply text: t

Inquiry: Does KB001 mouse Fab variant VL A56Q (Fab, V domains shown) VH: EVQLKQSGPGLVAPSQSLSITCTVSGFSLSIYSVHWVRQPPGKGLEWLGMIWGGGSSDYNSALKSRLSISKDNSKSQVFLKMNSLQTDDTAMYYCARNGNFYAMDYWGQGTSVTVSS VL: QIVLTQSPAIMSASLGERVTMTCTASSSVSSSFLHWYQQKPGSSPQLWIYSTSNLQSGVPARFSGSGSGTSYSLTISSMEAEDAATYYCHQYHHSPYIYTFGGGTKLEIK have a reported Ratio OD(Variant)/OD(WT) of at least 0.9 fold?
Reply text: f

Inquiry: Given KB001 mouse Fab variant VL L55S (Fab, V domains shown) VH: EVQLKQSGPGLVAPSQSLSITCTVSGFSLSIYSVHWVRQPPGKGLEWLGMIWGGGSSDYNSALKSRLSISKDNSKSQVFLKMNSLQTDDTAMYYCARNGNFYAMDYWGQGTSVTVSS VL: QIVLTQSPAIMSASLGERVTMTCTASSSVSSSFLHWYQQKPGSSPQLWIYSTSNSASGVPARFSGSGSGTSYSLTISSMEAEDAATYYCHQYHHSPYIYTFGGGTKLEIK , state whether its Ratio OD(Variant)/OD(WT) is at least 0.9 fold.
Reply text: f

Inquiry: Reported Ratio OD(Variant)/OD(WT) at or above 0.9 fold? KB001 mouse Fab variant VL Y97V (Fab, V domains shown) VH: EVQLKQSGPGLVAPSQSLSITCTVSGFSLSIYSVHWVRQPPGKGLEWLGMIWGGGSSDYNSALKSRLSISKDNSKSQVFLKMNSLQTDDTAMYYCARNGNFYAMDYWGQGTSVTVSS VL: QIVLTQSPAIMSASLGERVTMTCTASSSVSSSFLHWYQQKPGSSPQLWIYSTSNLASGVPARFSGSGSGTSYSLTISSMEAEDAATYYCHQYHHSPVIYTFGGGTKLEIK
Reply text: f

Inquiry: Hello, I need to know if KB001 mouse Fab variant VL Y97H (Fab, V domains shown) VH: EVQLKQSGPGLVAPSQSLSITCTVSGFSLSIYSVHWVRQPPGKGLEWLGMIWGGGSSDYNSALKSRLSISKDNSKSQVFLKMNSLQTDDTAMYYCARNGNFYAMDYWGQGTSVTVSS VL: QIVLTQSPAIMSASLGERVTMTCTASSSVSSSFLHWYQQKPGSSPQLWIYSTSNLASGVPARFSGSGSGTSYSLTISSMEAEDAATYYCHQYHHSPHIYTFGGGTKLEIK has measured Ratio OD(Variant)/OD(WT) not below 0.9 fold. Thanks!
Reply text: t
